test system: CYPIR Rice Flatsedge; test: Preemergence weed control, flooded paddy (Table III); type: in vivo, Cyperus iria; design: scale not given here; conditions: 0.5000 kg/ha
endpoint-label: herbicidal effect rating

Req: Give a short answer stating reported herbicidal effect rating for "COc1ccc(C)cc1-c1nsc2ccc(-n3c(=O)cc(C(F)(F)F)n(C)c3=O)cc12" .
Resp: 9.0

Req: Answer with the recorded herbicidal effect rating of "COc1cc(C)ccc1-c1nsc2ccc(-n3c(=O)cc(C(F)(F)F)n(C)c3=O)cc12" only.
Resp: 9.0

Req: Kindly indicate its recorded herbicidal effect rating. Item: "Cn1c(C(F)(F)F)cc(=O)n(-c2ccc3snc(-c4ccccc4)c3c2)c1=O"
Resp: 9.0

Req: Retrieve herbicidal effect rating measured for "COC(=O)COc1cc(C)c(C)cc1-c1nsc2ccc(-n3c(=O)cc(C(F)(F)F)n(C)c3=O)cc12" and print it.
Resp: 9.0

Req: Using known records, supply herbicidal effect rating for COC(=O)C(C)Oc1ccc(C)cc1-c1nsc2ccc(-n3c(=O)cc(C(F)(F)F)n(C)c3=O)cc12 (stereo not drawn)
Resp: 9.0

Req: Please supply the value of reported herbicidal effect rating for the item "Cc1nsc2ccc(-n3c(=O)cc(C(F)(F)F)n(C)c3=O)cc12"
Resp: 9.0

Req: Note herbicidal effect rating for the molecule shown: COC(=O)C(C)Oc1cc(C)c(C)cc1-c1nsc2ccc(-n3c(=O)cc(C(F)(F)F)n(C)c3=O)cc12 (stereo not drawn)
Resp: 9.0

Req: Return value of herbicidal effect rating for input "CCc1ccc(-c2nsc3ccc(-n4c(=O)cc(C(F)(F)F)n(C)c4=O)cc23)cc1" , no commentary.
Resp: 9.0

Req: Give reported herbicidal effect rating value for "COC(=O)COc1cc(C)ccc1-c1nsc2ccc(-n3c(=O)cc(C(F)(F)F)n(C)c3=O)cc12"
Resp: 9.0

Req: Please indicate herbicidal effect rating recorded for "COC(=O)COc1ccc(C)cc1-c1nsc2ccc(-n3c(=O)cc(C(F)(F)F)n(C)c3=O)cc12"
Resp: 9.0

Req: Consider the molecule "Cc1cc(O)c(-c2nsc3ccc(-n4c(=O)cc(C(F)(F)F)n(C)c4=O)cc23)cc1C" . State its measured herbicidal effect rating.
Resp: 9.0

Req: Give the reported value of herbicidal effect rating for this record: COC(=O)C(C)Oc1cc(C)ccc1-c1nsc2ccc(-n3c(=O)cc(C(F)(F)F)n(C)c3=O)cc12 (stereo not drawn)
Resp: 9.0

----------
test system: ORYSAT Rice, Tebonnet; assay: Tolerance of transplanted rice to post-transplant application (Table III); type: in vivo, Oryza sativa; parameters: scale not given here; details: 0.0625 kg/ha, crop tolerance
endpoint-label: herbicidal effect rating
Answer using only a numeral; do not append any unit.

Req: Specify reported herbicidal effect rating for the compound shown: "COc1cc(C)ccc1-c1nsc2ccc(-n3c(=O)cc(C(F)(F)F)n(C)c3=O)cc12"
Resp: 8.0

Req: In one line, give reported herbicidal effect rating of the entry "COC(=O)COc1cc(C)ccc1-c1nsc2ccc(-n3c(=O)cc(C(F)(F)F)n(C)c3=O)cc12" .
Resp: 7.0

Req: Supply reported herbicidal effect rating belonging to this compound: "CCc1ccc(-c2nsc3ccc(-n4c(=O)cc(C(F)(F)F)n(C)c4=O)cc23)cc1"
Resp: 3.0

Req: State its herbicidal effect rating for this compound: "COC(=O)COc1ccc(C)cc1-c1nsc2ccc(-n3c(=O)cc(C(F)(F)F)n(C)c3=O)cc12"
Resp: 3.0

Req: Answer with the recorded herbicidal effect rating of "Cn1c(C(F)(F)F)cc(=O)n(-c2ccc3snc(-c4ccccc4)c3c2)c1=O" only.
Resp: 7.0

Req: Provide only the value of recorded herbicidal effect rating for "COC(=O)COc1cc(C)c(C)cc1-c1nsc2ccc(-n3c(=O)cc(C(F)(F)F)n(C)c3=O)cc12"
Resp: 7.0

Req: Output herbicidal effect rating of "Cc1cc(O)c(-c2nsc3ccc(-n4c(=O)cc(C(F)(F)F)n(C)c4=O)cc23)cc1C"
Resp: 2.0

Req: Using the record for "COc1ccc(C)cc1-c1nsc2ccc(-n3c(=O)cc(C(F)(F)F)n(C)c3=O)cc12" , state its measured herbicidal effect rating.
Resp: 4.7

Req: Write down herbicidal effect rating measured for item COC(=O)C(C)Oc1ccc(C)cc1-c1nsc2ccc(-n3c(=O)cc(C(F)(F)F)n(C)c3=O)cc12 (stereo not drawn)
Resp: 2.0

Req: Please supply the value of reported herbicidal effect rating for the item "Cc1nsc2ccc(-n3c(=O)cc(C(F)(F)F)n(C)c3=O)cc12"
Resp: 8.0

Req: // Input: COC(=O)C(C)Oc1cc(C)c(C)cc1-c1nsc2ccc(-n3c(=O)cc(C(F)(F)F)n(C)c3=O)cc12 (stereo not drawn) . Output its herbicidal effect rating only.
Resp: 6.0

Req: Find the measured herbicidal effect rating of COC(=O)C(C)Oc1cc(C)ccc1-c1nsc2ccc(-n3c(=O)cc(C(F)(F)F)n(C)c3=O)cc12 (stereo not drawn) and report it.
Resp: 7.0

Values were extracted from patent US6156700A.
